# credit: ChEMBL document CHEMBL1140409

Assay: Maximum biliary concentration (dissolved in aqueous Tween-80) was determined on intragastric administration at 5-0.04 mg/kg in portal vein of rat gavage model
Type: ADME, organism-based, Bile
Parameters: dose 0.04 mg/kg, route […]
Conditions: po
experimental.endpoint: Cmax (ng/mL)
Give bare numbers, in ng/mL.

Exercise: # lookup: Cmax of CCCCC1(CCCC)CS(=O)(=O)c2ccc(N(C)C)cc2[C@@H](c2ccc(OCCCCC(=O)O)cc2)[C@H]1O
Solution: 1100

====

Molecular target: Ileal sodium/bile acid cotransporter (Homo sapiens)
Test: In vitro inhibition of ASBT mediated uptake of [14C]taurocholate (5 uM) in baby hamster cells expressing human IBAT
Type: cell-based
experimental.endpoint: IC50 (nM)
One number for each entry, in nM.

Solved entries (count: 5):
>  <molecule>
CCCCC1(CCCC)CS(=O)(=O)c2ccc(N(C)C)cc2[C@@H](c2ccc(OCc3ccc(C[n+]4ccccc4)cc3)cc2)[C@H]1O

>  <IC50, nM>
1

$$$$
>  <molecule>
CCCCC1(CCCC)CS(=O)(=O)c2ccc(N(C)C)cc2[C@@H](c2ccc(OCCOCCOCCN(CCO)CCO)cc2)[C@H]1O

>  <IC50, nM>
9

$$$$
>  <molecule>
CCCCC1(CCCC)CS(=O)(=O)c2ccc(N(C)C)cc2[C@@H](c2ccncc2)[C@H]1O (racemic)

>  <IC50, nM>
8

$$$$
>  <molecule>
CCCCC1(CCCC)CS(=O)(=O)c2ccc(N(C)C)cc2[C@@H](c2ccc(OCC(=O)O)cc2)[C@H]1O

>  <IC50, nM>
27

$$$$
>  <molecule>
CCCCC1(CCCC)CS(=O)(=O)c2ccc(N(C)C)cc2[C@@H](c2ccc(OCCCCC[N+](CC)(CC)CC)cc2)[C@H]1O

>  <IC50, nM>
2

$$$$

// each molecule listed below needs its IC50
1. CCCCC1(CCCC)CS(=O)(=O)c2ccc(N(C)C)cc2[C@@H](c2ccc(C[N+](CC)(CC)CC)cc2)[C@H]1O (racemic)
2. CCCCC1(CCCC)CS(=O)(=O)c2ccc(N(C)C)cc2[C@@H](c2ccc[n+](C)c2)[C@H]1O (racemic)
3. CCCCC1(CCCC)CS(=O)(=O)c2ccc(N(C)C)cc2[C@@H](c2cccc(OC)c2)[C@H]1O (racemic)
4. CCCCC1(CCCC)CS(=O)(=O)c2ccc(N(C)C)cc2[C@@H](c2ccc(OC)c(OC)c2)[C@H]1O (racemic)

Solution:
1: 5500; 2: 220; 3: 11; 4: 20

====

Target: Ileal sodium/bile acid cotransporter (Homo sapiens, UniProt Q12908)
Experiment: In vitro inhibition of ASBT mediated uptake of [14C]taurocholate (5 uM) in baby hamster cells expressing human IBAT
Can you tell me pIC50 for the items I'm about to list?
Numbers only, as −log10 of the molar value.

Solved entries (count: 6):
>  <compound>
CCCCC1(CCCC)CS(=O)(=O)c2ccc(N(C)C)cc2[C@@H](c2ccc(OCCOCCOCCN(CC)CC)cc2)[C@H]1O

>  <target.entity>
Ileal sodium/bile acid cotransporter (Homo sapiens, UniProt Q12908)

>  <experimental.endpoint>
pIC50

>  <assay.value>
7.52

$$$$
>  <compound>
CCCCC1(CCCC)CS(=O)(=O)c2ccc(N(C)C)cc2[C@@H](c2ccc(OCCOCCOCC[N+]34CCN(CC3)CC4)cc2)[C@H]1O

>  <target.entity>
Ileal sodium/bile acid cotransporter (Homo sapiens, UniProt Q12908)

>  <experimental.endpoint>
pIC50

>  <assay.value>
8.40

$$$$
>  <compound>
CCCCC1(CCCC)CS(=O)(=O)c2ccc(N(C)C)cc2[C@@H](c2ccc(C[n+]3ccccc3)cc2)[C@H]1O (racemic)

>  <target.entity>
Ileal sodium/bile acid cotransporter (Homo sapiens, UniProt Q12908)

>  <experimental.endpoint>
pIC50

>  <assay.value>
6.07

$$$$
>  <compound>
CCCCC1(CCCC)CS(=O)(=O)c2ccc(N(C)C)cc2[C@@H](c2ccc(C(=O)OC)cc2)[C@H]1O (racemic)

>  <target.entity>
Ileal sodium/bile acid cotransporter (Homo sapiens, UniProt Q12908)

>  <experimental.endpoint>
pIC50

>  <assay.value>
7.39

$$$$
>  <compound>
CCCCC1(CCCC)CS(=O)(=O)c2ccc(N(C)C)cc2[C@@H](c2cccc(OCCN(CC)CC)c2)[C@H]1O

>  <target.entity>
Ileal sodium/bile acid cotransporter (Homo sapiens, UniProt Q12908)

>  <experimental.endpoint>
pIC50

>  <assay.value>
7.35

$$$$
>  <compound>
CCCCC1(CCCC)CS(=O)(=O)c2ccc(N(C)C)cc2[C@@H](c2cccc(O)c2)[C@H]1O (racemic)

>  <target.entity>
Ileal sodium/bile acid cotransporter (Homo sapiens, UniProt Q12908)

>  <experimental.endpoint>
pIC50

>  <assay.value>
8.14

$$$$

Exercise: # lookup: pIC50 of CCCCC1(CCCC)CS(=O)(=O)c2ccc(N(C)C)cc2[C@@H](c2ccc(O)cc2)[C@H]1O (racemic)
Solution: 8.66

====

Target: Ileal sodium/bile acid cotransporter (Homo sapiens, UniProt Q12908)
Sequence (Q12908 whole entry): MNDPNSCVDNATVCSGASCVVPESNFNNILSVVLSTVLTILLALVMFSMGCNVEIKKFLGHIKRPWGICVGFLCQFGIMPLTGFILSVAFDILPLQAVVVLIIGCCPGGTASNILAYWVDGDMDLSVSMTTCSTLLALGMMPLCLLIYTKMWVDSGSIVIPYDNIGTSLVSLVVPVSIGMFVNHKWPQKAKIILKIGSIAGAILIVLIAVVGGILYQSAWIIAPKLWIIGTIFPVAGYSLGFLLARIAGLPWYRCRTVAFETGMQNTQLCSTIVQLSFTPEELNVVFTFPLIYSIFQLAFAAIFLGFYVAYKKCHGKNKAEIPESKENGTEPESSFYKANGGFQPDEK
Test: In vitro inhibition of ASBT mediated uptake of [14C]taurocholate (5 uM) in baby hamster cells expressing human IBAT
experimental.endpoint: pIC50
One number for each entry, as −log10 of the molar value.

Solved entries (count: 3):
>  <compound>
CCCCC1(CCCC)CS(=O)(=O)c2ccc(N(C)C)cc2[C@@H](c2cccc(NC(=O)CCCC[N+](CC)(CC)CC)c2)[C@H]1O

>  <experimental.endpoint>
pIC50

>  <assay.value>
9.12

$$$$
>  <compound>
CCCCC1(CCCC)CS(=O)(=O)c2ccc(N(C)C)cc2[C@@H](c2cccc(Nc3ccncc3)c2)[C@H]1O

>  <experimental.endpoint>
pIC50

>  <assay.value>
7.28

$$$$
>  <compound>
CCCCC1(CCCC)CS(=O)(=O)c2ccc(N(C)C)cc2[C@@H](c2cccc(C(=O)OC)c2)[C@H]1O (racemic)

>  <experimental.endpoint>
pIC50

>  <assay.value>
8.15

$$$$

// each compound listed below needs its pIC50
1. CCCCC1(CCCC)CS(=O)(=O)c2ccc(N(C)C)cc2[C@@H](c2cccc(C[n+]3ccccc3)c2)[C@H]1O (racemic)
2. CCCCC1(CCCC)CS(=O)(=O)c2ccc(N(C)C)cc2[C@@H](c2ccc(OCCOCCOCC[N+](C)(C)C)cc2)[C@H]1O
3. CCCCC1(CCCC)CS(=O)(=O)c2ccc(N(C)C)cc2[C@@H](c2cccc(CN(C)C)c2)[C@H]1O (racemic)
4. CCCCC1(CCCC)CS(=O)(=O)c2ccc(N(C)C)cc2[C@@H](c2ccc(C[N+](C)(C)C)cc2)[C@H]1O (racemic)
5. CCCCC1(CCCC)CS(=O)(=O)c2ccc(N(C)C)cc2[C@@H](c2ccc(OCCN(C)C)cc2)[C@H]1O
6. CCCCC1(CCCC)CS(=O)(=O)c2ccc(N(C)C)cc2[C@@H](c2cccc(Nc3cc[n+](C)cc3)c2)[C@H]1O
7. CCCCC1(CCCC)CS(=O)(=O)c2ccc(N(C)C)cc2[C@@H](c2ccc3cc(O)ccc3c2)[C@H]1O (racemic)
8. CCCCC1(CCCC)CS(=O)(=O)c2ccc(N(C)C)cc2[C@@H](c2ccc3cc(OC)ccc3c2)[C@H]1O (racemic)

Solution:
[8.12, 8.40, 7.33, 5.06, 6.47, 8.70, 7.77, 7.12]

====

Molecular target: Ileal sodium/bile acid cotransporter (Homo sapiens, UniProt Q12908)
Test: In vitro inhibition of ASBT mediated uptake of [14C]taurocholate (5 uM) in baby hamster cells expressing human IBAT
Can you tell me pIC50 for the items I'm about to list?
Give bare numbers, as −log10 of the molar value.

Solved entries (count: 3):
>  <molecule>
CCCCC1(CCCC)CS(=O)(=O)c2ccc(N(C)C)cc2[C@@H](c2cccc(OCC[N+](CC)(CC)CC)c2)[C@H]1O

>  <pIC50>
8.15

$$$$
>  <molecule>
CCCCC1(CCCC)CS(=O)(=O)c2ccc(N(C)C)cc2[C@@H](c2ccc(C(=O)O)cc2)[C@H]1O (racemic)

>  <pIC50>
6.49

$$$$
>  <molecule>
CCCCC1(CCCC)CS(=O)(=O)c2ccc(N(C)C)cc2[C@@H](c2cccc(CO)c2)[C@H]1O (racemic)

>  <pIC50>
8.35

$$$$

// each molecule listed below needs its pIC50
1. CCCCC1(CCCC)CS(=O)(=O)c2ccc(N(C)C)cc2[C@@H](c2ccc(SC)cc2)[C@H]1O (racemic)
2. CCCCC1(CCCC)CS(=O)(=O)c2ccc(N(C)C)cc2[C@@H](c2ccc(OCc3cc[n+](CC)cc3)cc2)[C@H]1O
3. CCCCC1(CCCC)CS(=O)(=O)c2ccc(N(C)C)cc2[C@@H](c2ccsc2)[C@H]1O (racemic)
4. CCCCC1(CCCC)CS(=O)(=O)c2ccc(N(C)C)cc2[C@@H](c2ccc(OCc3ccncc3)cc2)[C@H]1O
5. CCCCC1(CCCC)CS(=O)(=O)c2ccc(N(C)C)cc2[C@@H](c2cccc3ccccc23)[C@H]1O (racemic)
6. CCCCC1(CCCC)CS(=O)(=O)c2ccc(N(C)C)cc2[C@@H](c2ccc(OCCCCC(=O)O)cc2)[C@H]1O

Solution:
1: 7.38; 2: 8.22; 3: 8.30; 4: 7.55; 5: 6.21; 6: 8.07

// each molecule listed below needs its pIC50
1. CCCCC1(CCCC)CS(=O)(=O)c2ccc(N(C)C)cc2[C@@H](c2ccc(OC)cc2)[C@H]1O (racemic)
2. CCCCC1(CCCC)CS(=O)(=O)c2ccc(N(C)C)cc2[C@@H](c2ccc(OCCCCC[N+]34CCN(CC3)CC4)cc2)[C@H]1O
3. CCCCC1(CCCC)CS(=O)(=O)c2ccc(N(C)C)cc2[C@@H](c2ccc(CO)cc2)[C@H]1O (racemic)

Solution:
[8.17, 9.30, 7.96]
